// reported GI50 per item
- Tested on: TK-10
- Assay procedure: NCI60 five-dose screen, Renal Cancer
- Format: cell-based
- Condition: Homo sapiens; TK-10, Renal Cancer; five-dose screen; read-out: GI50
Just the number plus its unit, please.

Use these answered entries as a reference point.
{"columns": ["Compound", "Value type", "Experimental result"],
 "data": [
  ["CC[C@]12C=CCN3CC[C@@]4(c5ccc(OC)cc5N(C)[C@H]4[C@@](O)(C(=O)OC)[C@@H]1OC(=O)CCC(=O)N1CCN(c4ccc(C(F)(F)F)cc4)CC1)[C@@H]32 [Compound 28]", "GI50", "4.07 µM"],
  ["CC[C@]12C=CCN3CC[C@@]4(c5ccc(OC)cc5N(C)[C@H]4[C@@](O)(C(=O)OC)[C@@H]1OC(=O)CCCN1CCN(Cc4ccc(C(F)(F)F)cc4)CC1)[C@@H]32 [Compound 23]", "GI50", "1.66 µM"],
  ["CCC12C=CCN3CCC4(c5cc(NC(=O)CN6CCN(C(c7ccc(F)cc7)c7ccc(F)cc7)CC6)c(OC)cc5N(C)C4C(O)(C(=O)OC)C1OC(C)=O)C32 (centres unmarked) [Compound 20]", "GI50", "7.59 µM"],
  ["CC[C@]12C=CCN3CC[C@@]4(c5ccc(OC)cc5N(C)[C@H]4[C@@](O)(C(=O)OC)[C@@H]1OC(=O)CCC(=O)N1CCN(Cc4ccc(C(F)(F)F)cc4)CC1)[C@@H]32 [Compound 29]", "GI50", "12.3 µM"]
]}

Then there is this compound:
INPUT: Identify GI50 associated with the compound CC[C@]12C=CCN3CC[C@@]4(c5ccc(OC)cc5N(C)[C@H]4[C@@](O)(C(=O)OC)[C@@H]1OC(=O)CCCN1CCN(Cc4ccc(F)cc4)CC1)[C@@H]32 [Compound 24]
OUTPUT: 4.9 µM
